For each of the variants below, state its self-cleavage.
B1: Osa-1-4 twister ribozyme (parent)
chain: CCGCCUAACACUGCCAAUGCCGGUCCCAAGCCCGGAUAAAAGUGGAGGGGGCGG

# Variants of: B1
# protocolText: self-cleavage, relative activity (ratio to wild type); higher = more cleavage; co-transcriptional

Q: May I ask what self-cleavage has been recorded for A36U C26G ?
A: 0.08

Q: May I ask what self-cleavage has been recorded for C26G G44C ?
A: 0.09

Q: May I ask what self-cleavage has been recorded for C31A C33A ?
A: 0.05

Q: May I ask what self-cleavage has been recorded for A46U G19U ?
A: 0.04

Q: May I ask what self-cleavage has been recorded for C14U G22C ?
A: 0.04

Q: May I ask what self-cleavage has been recorded for A41G U12C ?
A: 0.78

Q: May I ask what self-cleavage has been recorded for U12G U37A ?
A: 0.6

Q: May I ask what self-cleavage has been recorded for G30C U24G ?
A: 0.01

Q: May I ask what self-cleavage has been recorded for C21U G30U ?
A: 0.04

Q: May I ask what self-cleavage has been recorded for A8C U18C ?
A: 0.08

Q: May I ask what self-cleavage has been recorded for G22A G54A ?
A: 0.77

Q: May I ask what self-cleavage has been recorded for C14U G49A ?
A: 0.05

Q: May I ask what self-cleavage has been recorded for C20U G19C ?
A: 0.18

Q: May I ask what self-cleavage has been recorded for C15G G42A ?
A: 0.12

Q: May I ask what self-cleavage has been recorded for A10U C33A ?
A: 0.02

Q: May I ask what self-cleavage has been recorded for G19U U37G ?
A: 0.53

Q: May I ask what self-cleavage has been recorded for C21G C52G ?
A: 0.18

Q: May I ask what self-cleavage has been recorded for G23U G35U ?
A: 0.05

Q: May I ask what self-cleavage has been recorded for C15U U24A ?
A: 0.04

Q: May I ask what self-cleavage has been recorded for A28U C15G ?
A: 0.14

Q: May I ask what self-cleavage has been recorded for A17U G44U ?
A: 0.94

Q: May I ask what self-cleavage has been recorded for G34U G50A ?
A: 0.26

Q: May I ask what self-cleavage has been recorded for A16U A36U ?
A: 1.01

Q: May I ask what self-cleavage has been recorded for C20A C52G ?
A: 0.79

Q: May I ask what self-cleavage has been recorded for A7U G51C ?
A: 0.03

Q: May I ask what self-cleavage has been recorded for C21A U37A ?
A: 0.92

Q: May I ask what self-cleavage has been recorded for C32A U24G ?
A: 0.02

Q: May I ask what self-cleavage has been recorded for G47C G48C ?
A: 0.05

Q: May I ask what self-cleavage has been recorded for C14A C31G ?
A: 0.02

Q: May I ask what self-cleavage has been recorded for G45U ?
A: 0.17

Q: May I ask what self-cleavage has been recorded for C25G C32G ?
A: 0.09

Q: May I ask what self-cleavage has been recorded for G44A G51U ?
A: 0.28

Q: May I ask what self-cleavage has been recorded for C26G U43G ?
A: 0.07

Q: May I ask what self-cleavage has been recorded for G30C U12G ?
A: 0.1

Q: May I ask what self-cleavage has been recorded for A28C U43A ?
A: 0.72

Q: May I ask what self-cleavage has been recorded for A36G U12G ?
A: 0.39

Q: May I ask what self-cleavage has been recorded for G30A G47A ?
A: 0.03

Q: May I ask what self-cleavage has been recorded for C33U G19C ?
A: 0.02

Q: May I ask what self-cleavage has been recorded for A17C U43G ?
A: 0.26

Q: May I ask what self-cleavage has been recorded for A46U G53U ?
A: 0.09

Q: May I ask what self-cleavage has been recorded for A40G A7G ?
A: 0.35

Q: May I ask what self-cleavage has been recorded for C27U G49A ?
A: 0.05

Q: May I ask what self-cleavage has been recorded for C21A G44C ?
A: 0.24

Q: May I ask what self-cleavage has been recorded for A38C G19C ?
A: 0.07

Q: May I ask what self-cleavage has been recorded for A16U G53A ?
A: 0.85

Q: May I ask what self-cleavage has been recorded for A29U G54C ?
A: 0.06
